Biological target: human GCG receptor (human, UniProt P47871 26-477)
Sequence (P47871 26-477): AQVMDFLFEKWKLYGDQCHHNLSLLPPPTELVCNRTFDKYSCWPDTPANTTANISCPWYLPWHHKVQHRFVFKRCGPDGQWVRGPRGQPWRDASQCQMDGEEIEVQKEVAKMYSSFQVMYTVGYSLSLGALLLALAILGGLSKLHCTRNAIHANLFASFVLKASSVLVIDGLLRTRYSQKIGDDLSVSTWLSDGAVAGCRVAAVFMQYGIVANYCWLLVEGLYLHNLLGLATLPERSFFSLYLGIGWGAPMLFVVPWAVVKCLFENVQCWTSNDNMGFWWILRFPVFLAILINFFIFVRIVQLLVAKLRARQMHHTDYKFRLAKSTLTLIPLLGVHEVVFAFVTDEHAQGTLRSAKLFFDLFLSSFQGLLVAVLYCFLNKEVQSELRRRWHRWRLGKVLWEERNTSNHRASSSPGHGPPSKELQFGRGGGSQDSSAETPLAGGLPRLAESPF
Experiment: cell-based or functional assay
Bridges are numbered along the chain shown (N, C = ends). Where no end group is shown, it is not given here. [ ]: non-standard residue; d: D form. Aib = CC(C)(N)C(=O)O
ASSAY METRIC: In vitro activity relative to native peptide (%) vs. Glucagon
Write the value in % as a bare number.

binder="Y[Aib]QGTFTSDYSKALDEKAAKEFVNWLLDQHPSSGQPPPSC (bridge 16-20) [triple agonist of SEQ ID NO: 101]" measured_number=13.9

Could you now look at the following binder, please?
Return In vitro activity relative to native peptide (%) vs. Glucagon for the following binder: Y[Aib]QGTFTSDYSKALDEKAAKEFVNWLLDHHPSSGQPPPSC (bridge 16-20) [triple agonist of SEQ ID NO: 98]
8.2

// data source = patent US20230302148A1
